SYSTEM: UniProt:Q9NR97
PROTOCOL_DESCRIPTION: huPBMC TLR8 Antagonist IL-6 TR-FRET Assay
Format: cell-based
Parameters: Fresh blood was collected from normal human donors; endogenous in cells; host or cells: human PBMCs from fresh donor blood
SETTINGS: human PBMCs stimulated with ssRNA40 1 μg/ml (DOTAP), 14-16 hrs; IL-6 TR-FRET read-out
Could you mark each record criterion met if its IC50 falls strictly under 400 nM, and criterion not met if it equals or exceeds it?

| ITEM_SMILES | SYSTEM | LABEL |
| --- | --- | --- |
| Cc1cc(N2CCc3c(c(C)nn3CC34CCC(NCC(C)(C)O)(CC3)CC4)C2)c2cnn(C)c2n1 | UniProt:Q9NR97 | criterion met |
| Cc1cc(N2CCc3c(c(C)nn3CC34CCC(NCC5CCC5)(CC3)CO4)C2)c2cnn(C)c2n1 | UniProt:Q9NR97 | criterion met |
| Cc1nc(N2CCc3c(c(C)nn3CC34CCC(N5CCOCC5)(CC3)CC4)C2)c2cn[nH]c2n1 | UniProt:Q9NR97 | criterion met |
| Cc1cc(N2CCc3c(c(C)nn3CC34CCC(NC(=O)CN5CCCC5)(CC3)CC4)C2)c2cnn(C)c2n1 | UniProt:Q9NR97 | criterion met |
| Cc1cc(N2CCc3c(c(C)nn3CC34CCC(NCC(F)F)(CC3)CC4)C2)c2cnn(C)c2n1 | UniProt:Q9NR97 | criterion met |
| Cc1nc(N2CCc3c(c(C)nn3CC34CCC(N5CCCC5)(CC3)CC4)C2)c2cnn(C)c2n1 | UniProt:Q9NR97 | criterion not met |
| Cc1cc(N2CCc3c(c(C)nn3CC34CCC(N5CCCC5)(CC3)CO4)C2)c2cnn(C)c2n1 | UniProt:Q9NR97 | criterion not met |
| Cc1cc(N2CCc3c(c(C)nn3CC34CCC(N(C)C)(CC3)CO4)C2)c2cnn(C)c2n1 | UniProt:Q9NR97 | criterion not met |
| Cc1nn(CC23CCC(NC4CCC4)(CC2)CC3)c2c1CN(c1ccnc(-c3ccccc3)c1)CC2 | UniProt:Q9NR97 | criterion met |
| Cc1cc(N2CCc3c(c(C)nn3CC34CCC(NC(C)C)(CC3)CC4)C2)c2cnn(C)c2n1 | UniProt:Q9NR97 | criterion not met |
| Cc1nc(N2CCc3c(c(C)nn3CC34CCC(N5CCOCC5)(CC3)CC4)C2)c2cnn(C)c2n1 | UniProt:Q9NR97 | criterion met |
| Cc1nc(N2CCc3c(c(C)nn3CC34CCC(NCC5COC5)(CC3)CC4)C2)c2c(n1)c(C)nn2C | UniProt:Q9NR97 | criterion met |
| CCNCC(=O)NC12CCC(Cn3nc(C)c4c3CCN(c3cc(C)nc5cn[nH]c35)C4)(CC1)CC2 | UniProt:Q9NR97 | criterion not met |
| Cc1nn(CC23CCC(N)(CC2)CC3)c2c1CN(c1nc(-c3ccc(F)cc3)nc3c1cnn3C)CC2 | UniProt:Q9NR97 | criterion not met |
| Cc1cc(N2CCc3c(c(C)nn3CC34CCC(N5C[C@H](C)O[C@@H](C)C5)(CC3)CC4)C2)c2cnn(C)c2n1 | UniProt:Q9NR97 | criterion met |
| Cc1cc(N2CCc3c(c(C)nn3CC34CCC(N(C)C(=O)OC(C)(C)C)(CC3)CC4)C2)c2cnn(C)c2n1 | UniProt:Q9NR97 | criterion not met |
| CCNC12CCC(Cn3nc(C)c4c3CCN(c3cc(C)nc5c3cnn5C)C4)(CC1)CC2 | UniProt:Q9NR97 | criterion met |
| COc1ccc(-c2cc(N3CCc4c(c(C)nn4CC45CCC(N)(CC4)CC5)C3)ccn2)cc1 | UniProt:Q9NR97 | criterion not met |
| Cc1cc(N2CCc3c(c(C)nn3CC34CCC(NC(=O)[C@H]5COCCN5)(CC3)CC4)C2)c2cnn(C)c2n1 | UniProt:Q9NR97 | criterion met |
| Cc1cc(N2CCc3c(c(C)nn3CC34CCC(NC5CCC5)(CC3)CC4)C2)c2cnn(C)c2n1 | UniProt:Q9NR97 | criterion met |
| Cc1cc(N2CCc3c(c(C)nn3CC34CCC(N)(CC3)CC4)C2)c2ccccc2n1 | UniProt:Q9NR97 | criterion not met |
| Cc1cc(N2CCc3c(c(C)nn3CC34CCC(N(C)C)(CC3)CC4)C2)c2cnn(C)c2n1 | UniProt:Q9NR97 | criterion met |
| Cc1cc(N2CCc3c(c(C)nn3CC34CCC(NC(=O)[C@@H]5COCCN5)(CC3)CC4)C2)c2cnn(C)c2n1 | UniProt:Q9NR97 | criterion met |
| Cc1nc(N2CCc3c(c(C)nn3CC34CCC(N5CCOCC5)(CC3)CC4)C2)c2c(n1)c(C)nn2C | UniProt:Q9NR97 | criterion met |
| Cc1nn(CC23CCC(N)(CC2)CC3)c2c1CN(c1ccnc(-c3ccc(F)cc3)c1)CC2 | UniProt:Q9NR97 | criterion not met |
| Cc1cc(N2CCc3c(c(C)nn3CC34CCC(N5C[C@@H](C)O[C@H](C)C5)(CC3)CC4)C2)c2cnn(C)c2n1 | UniProt:Q9NR97 | criterion met |
| Cc1cc(N2CCc3c(c(C)nn3CC34CCC(N5C[C@@H](C)O[C@@H](C)C5)(CC3)CC4)C2)c2cnn(C)c2n1 | UniProt:Q9NR97 | criterion met |
| Cc1cc(N2CCc3c(c(C)nn3CC34CCC(NC(=O)CN5CC(F)C5)(CC3)CC4)C2)c2cnn(C)c2n1 | UniProt:Q9NR97 | criterion not met |
| Cc1nn(CC23CCC(N)(CC2)CC3)c2c1CN(c1ccnc(-c3ccc(C#N)cc3)c1)CC2 | UniProt:Q9NR97 | criterion not met |

###

SYSTEM: TLR9 (Homo sapiens, UniProt Q9NR96)
Construct: Fresh blood was collected from normal human donors; endogenous in cells
Sequence (Q9NR96 26-1032): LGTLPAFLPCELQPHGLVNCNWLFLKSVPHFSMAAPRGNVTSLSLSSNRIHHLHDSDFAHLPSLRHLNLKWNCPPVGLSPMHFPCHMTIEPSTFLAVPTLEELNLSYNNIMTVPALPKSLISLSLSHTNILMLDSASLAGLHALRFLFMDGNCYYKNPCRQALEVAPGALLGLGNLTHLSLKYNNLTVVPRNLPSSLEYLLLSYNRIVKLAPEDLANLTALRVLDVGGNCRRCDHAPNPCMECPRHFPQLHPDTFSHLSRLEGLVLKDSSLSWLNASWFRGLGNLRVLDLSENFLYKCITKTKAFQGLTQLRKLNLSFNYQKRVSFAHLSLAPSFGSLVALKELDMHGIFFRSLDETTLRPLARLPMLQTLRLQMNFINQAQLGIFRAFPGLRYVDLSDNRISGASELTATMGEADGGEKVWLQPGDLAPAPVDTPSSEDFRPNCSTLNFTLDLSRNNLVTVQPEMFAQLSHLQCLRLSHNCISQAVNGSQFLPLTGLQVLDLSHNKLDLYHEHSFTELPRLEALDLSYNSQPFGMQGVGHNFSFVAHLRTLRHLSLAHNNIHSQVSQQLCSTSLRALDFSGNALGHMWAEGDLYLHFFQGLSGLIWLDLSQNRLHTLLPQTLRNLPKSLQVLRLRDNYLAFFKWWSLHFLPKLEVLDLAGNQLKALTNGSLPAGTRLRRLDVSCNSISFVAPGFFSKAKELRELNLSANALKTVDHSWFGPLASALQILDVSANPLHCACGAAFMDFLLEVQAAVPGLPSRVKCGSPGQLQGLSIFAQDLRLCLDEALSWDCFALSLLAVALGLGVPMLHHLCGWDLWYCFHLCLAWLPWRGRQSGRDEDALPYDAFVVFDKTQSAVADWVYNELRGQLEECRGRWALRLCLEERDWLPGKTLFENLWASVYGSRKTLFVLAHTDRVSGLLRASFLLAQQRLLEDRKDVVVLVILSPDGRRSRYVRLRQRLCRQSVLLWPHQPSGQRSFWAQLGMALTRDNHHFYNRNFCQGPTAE
PROTOCOL_DESCRIPTION: huPBMC TLR9 Antagonist IFNα Assay
SETTINGS: human PBMCs stimulated with ODN2216 0.3 μM, 14-16 hrs; IFNα2b AlphaLISA read-out
pIC50: −log10 of the molar value.
# pIC50 per record follows

| ITEM_SMILES | INEQUALITY_OPERATOR | pIC50 |
| --- | --- | --- |
| Cc1nc(N2CCc3c(c(C)nn3CC34CCC(N5CCCC5)(CC3)CC4)C2)c2cnn(C)c2n1 | < | 5.00 |
| Cc1nc(N2CCc3c(c(C)nn3CC34CCC(NC(=O)[C@H]5CNCCO5)(CC3)CC4)C2)c2c(n1)c(C)nn2C | = | 5.30 |
| Cc1nn(CC23CCC(N)(CC2)CC3)c2c1CN(c1ccnc3[nH]ncc13)CC2 | = | 6.09 |
| Cc1cc(N2CCc3c(c(C(F)(F)F)nn3CC34CCC(N)(CC3)CC4)C2)c2cnn(C)c2n1 | = | 5.69 |
| Cn1ncc2c(N3CCc4nn(CC56CCC(N)(CC5)CC6)cc4C3)nc(N)nc21 | < | 5.30 |
| Cc1nc(N2CCc3c(c(C)nn3CC34CCC(NC(=O)[C@@H]5CNCCO5)(CC3)CC4)C2)c2c(n1)c(C)nn2C | = | 5.24 |
| COCCNC12CCC(Cn3nc(C)c4c3CCN(c3cc(C)nc5c3cnn5C)C4)(CC1)CC2 | = | 6.35 |

###

SYSTEM: TLR8 (Homo sapiens, UniProt Q9NR97)
Sequence (Q9NR97 27-1041): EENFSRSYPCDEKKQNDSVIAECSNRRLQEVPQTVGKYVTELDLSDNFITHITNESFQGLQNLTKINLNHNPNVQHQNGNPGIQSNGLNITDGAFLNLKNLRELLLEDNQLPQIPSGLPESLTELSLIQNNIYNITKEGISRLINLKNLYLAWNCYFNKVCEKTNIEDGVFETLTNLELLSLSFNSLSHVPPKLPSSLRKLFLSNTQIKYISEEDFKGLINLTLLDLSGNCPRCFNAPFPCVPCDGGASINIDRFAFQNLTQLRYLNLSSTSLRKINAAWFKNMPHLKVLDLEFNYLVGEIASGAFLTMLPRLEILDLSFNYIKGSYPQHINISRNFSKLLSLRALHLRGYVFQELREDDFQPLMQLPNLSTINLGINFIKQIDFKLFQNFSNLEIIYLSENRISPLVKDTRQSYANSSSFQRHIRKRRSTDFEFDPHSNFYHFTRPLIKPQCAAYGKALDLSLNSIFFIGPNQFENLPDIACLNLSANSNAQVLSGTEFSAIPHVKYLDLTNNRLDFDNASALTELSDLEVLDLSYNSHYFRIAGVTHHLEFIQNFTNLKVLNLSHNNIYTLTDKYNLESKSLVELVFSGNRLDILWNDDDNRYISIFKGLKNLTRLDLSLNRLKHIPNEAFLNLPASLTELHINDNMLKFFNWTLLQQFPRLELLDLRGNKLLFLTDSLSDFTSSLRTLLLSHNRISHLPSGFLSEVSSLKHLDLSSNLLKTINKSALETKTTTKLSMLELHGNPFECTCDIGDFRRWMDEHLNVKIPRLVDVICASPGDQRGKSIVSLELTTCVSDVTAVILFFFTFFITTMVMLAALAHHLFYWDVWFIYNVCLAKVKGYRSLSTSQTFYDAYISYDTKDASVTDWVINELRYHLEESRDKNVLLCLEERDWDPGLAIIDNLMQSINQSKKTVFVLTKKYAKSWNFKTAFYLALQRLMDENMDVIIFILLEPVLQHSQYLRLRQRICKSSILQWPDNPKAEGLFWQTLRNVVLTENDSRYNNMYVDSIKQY
PROTOCOL_DESCRIPTION: huPBMC TLR8 Antagonist IL-6 TR-FRET Assay
Type: cell-based
Design: Fresh blood was collected from normal human donors; endogenous in cells; host or cells: human PBMCs from fresh donor blood
SETTINGS: human PBMCs stimulated with ssRNA40 1 μg/ml (DOTAP), 14-16 hrs; IL-6 TR-FRET read-out
Below: a set of entries, each annotated with reported IC50.
MEASUREMENT_TYPE: IC50 (nM)

| ITEM_SMILES | DATA_VALUE |
| --- | --- |
| Cc1cc(N2CCc3c(c(C)nn3CC34CCC(N5CC(O)C5)(CC3)CC4)C2)c2cnn(C)c2n1 | 155 |
| Cc1cc(N2CCc3c(c(C)nn3CC34CCC(NC5CCC5)(CC3)CO4)C2)c2cnn(C)c2n1 | 687 |
| Cc1nn(CC23CCC(N)(CC2)CC3)c2c1CN(c1nc(N)nc3c1cnn3C)CC2 | 1350 |
| Cc1cc(N2CCc3c(c(C)nn3CC34CCC(NC(=O)CN5CC(O)C5)(CC3)CC4)C2)c2cnn(C)c2n1 | 178 |
